- test system: human 11β-HSD1 (Homo sapiens, UniProt P28845)
- Construct: 100 ug/ml human/mouse liver microsomes; from tissue; host or cells: human liver microsomes
- Sequence (P28845 whole entry): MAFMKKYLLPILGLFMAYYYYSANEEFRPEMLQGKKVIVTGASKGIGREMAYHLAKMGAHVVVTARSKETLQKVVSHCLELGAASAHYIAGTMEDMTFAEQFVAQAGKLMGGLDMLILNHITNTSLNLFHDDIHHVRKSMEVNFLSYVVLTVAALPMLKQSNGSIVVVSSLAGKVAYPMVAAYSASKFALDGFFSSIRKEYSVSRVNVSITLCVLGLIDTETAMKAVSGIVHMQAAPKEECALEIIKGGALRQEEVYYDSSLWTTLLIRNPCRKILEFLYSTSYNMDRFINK
- assay explanation: Enzyme activity analysis on human 11β-HSD1 (HTRF cortisol, liver microsomes)
- Assay type: biochemical
- measurement parameters: first value of cell
// classify: if (IC50 < 0.09 µM) yes else no

Worked examples follow.
- compound: "Cc1c(Cl)cccc1S(=O)(=O)NC1(C(=O)NC2C3CC4CC2CC(C(N)=O)(C4)C3)CCCC1 (stereo not drawn)"
  assigned label: "yes"
- compound: "Cc1c(Cl)cccc1S(=O)(=O)NC(C)(C)C(=O)NC1C2CC3CC1CC(C(N)=O)(C3)C2 (stereo not drawn)"
  assigned label: "yes"
- compound: "COc1ccc(S(=O)(=O)NC(C)(C)C(=O)NC2C3CC4CC(C3)CC2C4)cc1[N+](=O)[O-] (stereo not drawn)"
  assigned label: "no"
- compound: "CCN(C(C)(C)C(=O)NC1C2CC3CC1CC(C(N)=O)(C3)C2)S(=O)(=O)c1cccc(Cl)c1C (stereo not drawn)"
  assigned label: "yes"
- compound: "CC(C)(NS(=O)(=O)c1ccccc1OC(F)(F)F)C(=O)NC1C2CC3CC1CC(C(N)=O)(C3)C2 (stereo not drawn)"
  assigned label: "yes"
- compound: "CC(C)(NS(=O)(=O)c1ccccc1C(N)=O)C(=O)NC1C2CC3CC(C2)CC1C3 (stereo not drawn)"
  assigned label: "no"
- compound: "NC(=O)C12CC3CC(C1)C(NC(=O)C1(NS(=O)(=O)c4ccccc4C(F)(F)F)CCCC1)C(C3)C2 (stereo not drawn)"
  assigned label: "yes"
- compound: "CC(C)(NS(=O)(=O)c1ccccc1N)C(=O)NC1C2CC3CC1CC(C(N)=O)(C3)C2 (stereo not drawn)"
  assigned label: "yes"
- compound: "CC(C)(NS(=O)(=O)c1ccc(F)cc1F)C(=O)NC1C2CC3CC(C2)CC1C3 (stereo not drawn)"
  assigned label: "no"
- compound: "CNC(=O)C12CC3CC(C1)C(NC(=O)C(C)(C)NS(=O)(=O)c1ccccc1Cl)C(C3)C2 (stereo not drawn)"
  assigned label: "no"

-- ask API: query returns whether the compound falls strictly under 0.09 µM in IC50. Query: CC(C)(NS(=O)(=O)c1cccc([N+](=O)[O-])c1)C(=O)NC1C2CC3CC1CC(C(N)=O)(C3)C2 (stereo not drawn)
-- reply no

-- ask API: query returns whether the compound falls strictly under 0.09 µM in IC50. Query: CN(C(C)(C)C(=O)NC1C2CC3CC1CC(C(N)=O)(C3)C2)S(=O)(=O)c1ccccc1Cl (stereo not drawn)
-- reply yes

-- ask API: query returns whether the compound falls strictly under 0.09 µM in IC50. Query: CC(C)(NS(=O)(=O)c1ccccc1Br)C(=O)NC1C2CC3CC(C2)CC1C3 (stereo not drawn)
-- reply yes

-- ask API: query returns whether the compound falls strictly under 0.09 µM in IC50. Query: CC(C)(NS(=O)(=O)c1ccc(OC(F)F)cc1)C(=O)NC1C2CC3CC1CC(C(N)=O)(C3)C2 (stereo not drawn)
-- reply no

-- ask API: query returns whether the compound falls strictly under 0.09 µM in IC50. Query: CCN(C(C)(C)C(=O)NC1C2CC3CC1CC(C(N)=O)(C3)C2)S(=O)(=O)c1ccccc1F (stereo not drawn)
-- reply yes

Measured values drawn from patent US9073830B2 for this set.
